ASSAYED_SYSTEM: Peroxisome proliferator-activated receptor delta (Homo sapiens)
Sequence (Q03181 whole entry): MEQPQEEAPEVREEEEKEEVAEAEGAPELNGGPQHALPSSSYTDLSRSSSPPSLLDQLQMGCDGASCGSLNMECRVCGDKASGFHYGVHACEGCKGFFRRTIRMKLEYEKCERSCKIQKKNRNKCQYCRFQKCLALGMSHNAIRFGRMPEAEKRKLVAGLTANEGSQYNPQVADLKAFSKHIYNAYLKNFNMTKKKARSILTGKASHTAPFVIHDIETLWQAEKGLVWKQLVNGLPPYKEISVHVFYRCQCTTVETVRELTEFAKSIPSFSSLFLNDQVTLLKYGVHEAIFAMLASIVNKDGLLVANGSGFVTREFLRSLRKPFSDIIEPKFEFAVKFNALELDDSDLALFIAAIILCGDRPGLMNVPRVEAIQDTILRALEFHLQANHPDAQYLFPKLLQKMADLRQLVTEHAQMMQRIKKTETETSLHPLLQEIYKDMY
TEST_DETAILS: Partial agonist activity at Gal4-fused PPARdelta LBD (unknown origin) expressed in HEK293T cells after 14 to 16 hrs by dual-Glo luciferase assay
MEASUREMENT_LABEL: log10 of EC50 (log10 of the value in µM)
log10 EC50, µM

The examples below pair each entry with its known result.
[[record]]
molecule = "CCCCCC[C@@H](Sc1nc2ccc(NS(=O)(=O)c3ccc(Cl)cc3Cl)cc2s1)C(=O)O"
measurement_label = "log10 of EC50"
readout_value = -0.09

[[record]]
molecule = "CCCCCCC(Sc1nc2ccc(NS(=O)(=O)c3ccc(Cl)cc3)cc2s1)C(=O)O (configuration not stated)"
measurement_label = "log10 of EC50"
readout_value = 0.72

[[record]]
molecule = "CCCCCCC(Sc1nc2ccc(NS(=O)(=O)c3ccc(Cl)cc3Cl)cc2s1)C(=O)O (configuration not stated)"
measurement_label = "log10 of EC50"
readout_value = -0.40

[[record]]
molecule = "CCCCCCC(Sc1nc2ccc(NCc3cc(Cl)cc(Cl)c3)cc2s1)C(=O)O (configuration not stated)"
measurement_label = "log10 of EC50"
readout_value = 0.96


Measured on Peroxisome proliferator-activated receptor delta (Homo sapiens), CCCCCC[C@H](Sc1nc2ccc(NS(=O)(=O)c3ccc(Cl)cc3Cl)cc2s1)C(=O)O has a documented log10 of EC50 of -0.40

Readout log10 of EC50 for CCCCCCC(Sc1nc2ccc(NCc3ccccc3)cc2s1)C(=O)O (configuration not stated) , test system Peroxisome proliferator-activated receptor delta (Homo sapiens), was 0.79

Known value: Peroxisome proliferator-activated receptor delta (Homo sapiens) log10 of EC50 of the molecule CCCCCCC(Sc1nc2ccc(NC(=O)c3ccccc3)cc2s1)C(=O)O (configuration not stated) equals 0.85

For CCCCCCC(Sc1nc2ccc(NCc3ccc4ccccc4c3)cc2s1)C(=O)O (configuration not stated) on Peroxisome proliferator-activated receptor delta (Homo sapiens), measured log10 of EC50 was 0.63

The observed log10 of EC50 for CCCCCCC(Sc1nc2ccc(NC(=O)c3ccc(C(C)(C)C)cc3)cc2s1)C(=O)O (configuration not stated) when tested with Peroxisome proliferator-activated receptor delta (Homo sapiens) stands at 0.79

----------
ASSAYED_SYSTEM: Peroxisome proliferator-activated receptor gamma (Homo sapiens, UniProt P37231)
Sequence (P37231 whole entry, the tested form may be a part): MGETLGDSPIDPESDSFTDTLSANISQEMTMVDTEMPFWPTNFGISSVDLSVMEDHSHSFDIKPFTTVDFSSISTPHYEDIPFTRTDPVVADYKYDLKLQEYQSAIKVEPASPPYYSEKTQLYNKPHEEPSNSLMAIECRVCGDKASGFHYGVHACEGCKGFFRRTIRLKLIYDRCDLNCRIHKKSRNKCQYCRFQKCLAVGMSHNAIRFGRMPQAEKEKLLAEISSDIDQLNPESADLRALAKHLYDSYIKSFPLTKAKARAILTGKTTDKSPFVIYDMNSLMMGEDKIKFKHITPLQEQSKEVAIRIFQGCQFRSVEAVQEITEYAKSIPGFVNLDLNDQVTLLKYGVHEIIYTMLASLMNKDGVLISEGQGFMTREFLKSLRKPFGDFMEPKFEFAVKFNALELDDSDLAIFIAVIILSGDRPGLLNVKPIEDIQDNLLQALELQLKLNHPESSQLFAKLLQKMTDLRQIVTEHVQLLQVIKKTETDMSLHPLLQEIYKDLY
TEST_DETAILS: Partial agonist activity at Gal4-fused PPARgamma LBD (unknown origin) expressed in HEK293T cells after 14 to 16 hrs by dual-Glo luciferase assay
Type: cell-based
pEC50: −log10 of the molar value.
Is pEC50 at least 6? Then 1. If not, 0.

Use these answered entries as a reference point.
[[record]]
compound = "CCCCC(Sc1nc2ccc(NC(=O)c3ccc(C(C)(C)C)cc3)cc2s1)C(=O)O (stereo not drawn)"
label = 0

[[record]]
compound = "CCCCCCC(Sc1nc2ccc(NCc3ccc(Cl)cc3)cc2s1)C(=O)O (stereo not drawn)"
label = 0

[[record]]
compound = "CCCCCCC(Sc1nc2ccc(NS(=O)(=O)c3ccc(Cl)cc3)cc2s1)C(=O)O (stereo not drawn)"
label = 1

[[record]]
compound = "CCCCCCC(Sc1nc2ccc(NCc3ccccc3)cc2s1)C(=O)O (stereo not drawn)"
label = 0

[[record]]
compound = "CCCCCCC(Sc1nc2ccc(NC(=O)c3ccccc3)cc2s1)C(=O)O (stereo not drawn)"
label = 0


Given CCCCCCC(Sc1nc2ccc(NS(=O)(=O)c3ccc(Cl)cc3Cl)cc2s1)C(=O)O (stereo not drawn) , state whether its pEC50 is at least 6. 1

Given CCCCCCC(Sc1nc2ccc(NCc3cc(Cl)cc(Cl)c3)cc2s1)C(=O)O (stereo not drawn) , state whether its pEC50 is at least 6. 0

Threshold query (pEC50 >= 6) on CCCCCC[C@@H](Sc1nc2ccc(NS(=O)(=O)c3ccc(Cl)cc3Cl)cc2s1)C(=O)O 1

Test whether the compound CCCCCCC(Sc1nc2ccc(NCc3ccc4ccccc4c3)cc2s1)C(=O)O (stereo not drawn) records pEC50 of 6 or higher. 0

Please tell me: is the compound CCCCCCC(Sc1nc2ccc(NCc3ccc(Cl)c(Cl)c3)cc2s1)C(=O)O (stereo not drawn) at or over 6 in terms of pEC50? 0
